Catalogue of GI50 values
system: PC-3; assay: NCI tumour cell line growth inhibition, 48 h
The source made the active and inactive calls. No stated cut-off is given here; in the data, active = GI50 up to about 1.1 µM and inactive = higher.
Quantity kind: GI50

>>> reported_measurement("Cc1ncc(CO)c(CN)c1O")
"> 100 µM (inactive)"
>>> reported_measurement("CSc1ccc2c(cc1=O)[C@@H](NC(=O)c1ccc([N+](=O)[O-])cc1)CCc1cc(O)c(O)c(O)c1-2")
"> 100 µM (inactive)"
>>> reported_measurement("Cc1[nH]n(-c2ccc(S(=O)(=O)O)cc2)c(=O)c1/N=N/c1ccccc1")
"> 100 µM (inactive)"
>>> reported_measurement("COc1ccc(Cn2c(=O)c(OC)c(C)c3cc4ccccc4cc32)cc1")
"16.1 µM (inactive)"
>>> reported_measurement("COC(=O)c1cc(C(=CCC[C@H]2CC[C@@]3(C)C(CCC4C3CC[C@@]3(C)C4CC[C@@H]3C(C)CCCC(C)C)C2)c2cc(Cl)c(O)c(C(=O)OC)c2)cc(Cl)c1O (stereo partly drawn)")
"> 10 µM (inactive)"
>>> reported_measurement("O=C(CBr)c1ccc2cc(Br)c3ccccc3c2c1")
"21 µM (inactive)"
>>> reported_measurement("CSC(SC)=C(C(=O)O)P(=O)(O)O")
"> 100 µM (inactive)"
>>> reported_measurement("CCNC(=O)Nc1ccccn1")
"> 100 µM (inactive)"
>>> reported_measurement("Cc1cc(-c2cccc3ccccc23)c(C#N)c(=S)n1C1OC(CO)C(O)C(O)C1O (stereo not drawn)")
"> 100 µM (inactive)"
>>> reported_measurement("N#CC(C#N)=Cc1ccc2c(c1)OC(Cl)O2 (stereo not drawn)")
"23.2 µM (inactive)"
>>> reported_measurement("O=S(=O)(O)c1ccc(/N=N/c2ccc(/N=N/c3c(O)ccc4cc(S(=O)(=O)O)ccc34)cc2)cc1")
"> 100 µM (inactive)"
>>> reported_measurement("NC1CNC(=O)c2cscc21 (stereo not drawn)")
"53.2 µM (inactive)"
>>> reported_measurement("CCCCC1=C(C(=O)N2CCOCC2)C2(OCCO2)C1Cl (stereo not drawn)")
"35.6 µM (inactive)"
>>> reported_measurement("Cc1sc(C)c2c1C(=O)CC2N (stereo not drawn)")
"27.4 µM (inactive)"
>>> reported_measurement("Cc1cc(OCc2nnc3n2N=C(c2cc(F)c(Cl)cc2Cl)/C(=C/c2ccc(Cl)cc2)S3)ccc1Cl")
"21.4 µM (inactive)"
>>> reported_measurement("CCC1=[N+]([O-])C(C)(C)NC1(C)C")
"> 10 µM (inactive)"
>>> reported_measurement("c1ccc2c3c(c(N4CCNCC4)nc2c1)CCCC3")
"13 µM (inactive)"
>>> reported_measurement("COc1ccc(NC(=O)Oc2cc(C)c3ccc(=O)cc-3o2)c(OC)c1.COc1ccc(NC(=O)Oc2ccc3c(C)cc(=O)oc3c2)c(OC)c1")
"> 100 µM (inactive)"
>>> reported_measurement("C=C1C(=O)O[C@@H]2[C@@H]3O[C@@H](C[C@@H]13)[C@](C)(O)CC/C=C(\\C)CCC[C@@H]2C")
"10.4 µM (inactive)"
>>> reported_measurement("OC(Cc1cccnc1)(c1ccccc1)c1ccccc1")
"> 100 µM (inactive)"
>>> reported_measurement("C=C(C)C1CC/C(C)=C/CCC2(C)OC2CC/C(CO)=C\\C1O (stereo not drawn)")
"64.3 µM (inactive)"
>>> reported_measurement("CN(CC(=O)O)Cc1c[nH]c2ccccc12")
"> 100 µM (inactive)"
>>> reported_measurement("CC(=O)n1nc(-c2ccccc2)n(/N=C/c2ccc([N+](=O)[O-])cc2)c1=O")
"> 100 µM (inactive)"
